Biological target: AKT1 E17K (Homo sapiens, UniProt P31749, E17K)
Construct: expressed in transfected cells; host or cells: HEK293
Sequence (P31749 whole entry E17K): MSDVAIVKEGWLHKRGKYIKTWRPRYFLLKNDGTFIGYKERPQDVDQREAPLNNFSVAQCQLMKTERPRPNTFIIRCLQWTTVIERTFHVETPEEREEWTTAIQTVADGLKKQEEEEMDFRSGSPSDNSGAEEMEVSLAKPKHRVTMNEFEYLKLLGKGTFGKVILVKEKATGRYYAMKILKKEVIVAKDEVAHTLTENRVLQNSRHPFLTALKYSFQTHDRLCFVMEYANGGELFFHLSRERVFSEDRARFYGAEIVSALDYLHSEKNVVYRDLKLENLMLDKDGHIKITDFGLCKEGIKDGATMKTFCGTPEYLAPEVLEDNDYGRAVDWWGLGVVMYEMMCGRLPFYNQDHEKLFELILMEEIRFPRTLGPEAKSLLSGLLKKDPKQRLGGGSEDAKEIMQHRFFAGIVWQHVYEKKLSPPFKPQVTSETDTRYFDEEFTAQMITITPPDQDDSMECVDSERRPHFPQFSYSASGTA
Test: Live cell AKT1 E17K target engagement by NanoBRET competitive probe displacement in HEK293 cells
Format: binding
Details: NanoBRET live cell target engagement, HEK293 cells, 2 h at 37° C.
Experimental: Determining live cell AKT1 E17K, AKT1 WT, and AKT2 target engagement by NanoBRET competitive probe displacement. Live cell target engagement assays were performed as described (Vasta, J. D. et al. Cell Chem Biol 2018, 25(11), 206-214). […] After incubation for 2 h at 37° C., luciferase substrate and extracellular luciferase inhibitor were added to all wells, and luminescent intensity at 460 nm and 600 nm were measured on a multimode plate-reader. […]
Parameter: IC50 (µM)

# Given smiles, Target or test system, IC50 (µM)
data = [
    ("COc1cc(C(=O)N[C@H]2CCc3cc(-n4c(-c5cccnc5N)nc5ccc(-n6nccn6)nc54)ccc32)cnc1C(F)F", "AKT1 E17K (Homo sapiens, UniProt P31749, E17K)", 0.26),
]

(A) Nc1ncccc1-c1nc2ccc(-c3ccccc3)nc2n1-c1ccc2c(c1)CC[C@@H]2NC1CCN(C(=O)C2CC2)CC1
(B) Cn1ncc2cc(C(=O)N[C@H]3CCc4cc(-n5c(-c6cccnc6N)nc6ccc(-n7cccn7)nc65)ccc43)cnc21
Task: IC50 comparison. Which is larger, A or B ? Indicate your choice by writing its label.
Output: A
(A: 0.257 µM, B: 0.0121 µM)

* * *

Target: AKT1 WT (Homo sapiens, UniProt P31749)
Construct: expressed in transfected cells; host or cells: HEK293
Sequence (P31749 whole entry): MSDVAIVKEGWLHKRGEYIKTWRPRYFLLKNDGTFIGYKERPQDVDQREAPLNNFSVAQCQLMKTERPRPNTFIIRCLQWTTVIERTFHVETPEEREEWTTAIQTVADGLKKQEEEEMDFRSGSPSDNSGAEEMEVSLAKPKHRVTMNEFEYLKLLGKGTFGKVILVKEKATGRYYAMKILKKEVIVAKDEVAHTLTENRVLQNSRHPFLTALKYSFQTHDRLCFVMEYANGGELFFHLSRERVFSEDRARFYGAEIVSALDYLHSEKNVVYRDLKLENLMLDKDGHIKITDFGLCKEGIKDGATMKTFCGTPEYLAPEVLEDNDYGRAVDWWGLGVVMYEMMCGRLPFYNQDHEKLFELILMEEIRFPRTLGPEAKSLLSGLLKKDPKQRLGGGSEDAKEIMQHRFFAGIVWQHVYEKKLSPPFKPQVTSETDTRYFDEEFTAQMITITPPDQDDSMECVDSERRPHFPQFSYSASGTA
Assay: Live cell AKT1 WT target engagement by NanoBRET competitive probe displacement in HEK293 cells
Format: binding
Conditions: NanoBRET competitive probe displacement, live HEK293 cells, 2 h at 37° C.; read-out: AKT1 WT IC50
pIC50: −log10 of the molar value.
Parameter: pIC50

Example entries begin here.
# Molecule, pIC50
rows = [
    ("Nc1ncccc1-c1nc2ccc(-n3nccn3)nc2n1-c1ccc2c(c1)CC[C@@H]2NC(=O)c1ccc(CO)nc1", 7.13),
    ("Nc1ncccc1-c1nc2ccc(-n3ccc(OC(F)F)n3)nc2n1-c1ccc2c(c1)CC[C@@H]2NC(=O)c1ccc(C2CC2)nc1", 8.56),
]

(P) Nc1ncccc1-c1nc2ccc(C#CC3CC3)nc2n1-c1ccc2c(c1)CC[C@@H]2NC(=O)c1ccc(C(F)F)nc1
(Q) Nc1ncccc1-c1nc2ccc(-n3cccn3)nc2n1-c1ccc2c(c1)CC[C@@H]2NC1CCc2cc(O)ccc21 (stereo partly shown) [Compound 498]
Task: Which has the smaller recorded pIC50, P or Q ? Indicate your choice by writing its label.
Output: Q

(I) Nc1ncccc1-c1nc2ccc(C#CC3CC3)nc2n1-c1ccc2c(c1)CC[C@@H]2n1cnnc1
(II) COC1CCN(c2ccn(-c3ccc4nc(-c5cccnc5N)n(-c5ccc6c(c5)CC[C@@H]6NC5CCN(C(=O)C6CC6)CC5)c4n3)n2)CC1
(III) Nc1ncccc1-c1nc2ccc(-n3cccn3)nc2n1-c1ccc2c(c1)CC[C@@H]2NC1CCN(C(=O)[C@H]2C[C@@H]2F)CC1
(IV) Nc1ncccc1-c1nc2ccc(-n3cccn3)nc2n1-c1ccc2c(c1)CC[C@@H]2NC1CC2(C1)CN(c1ccccn1)C2
Task: List items by pIC50 in falling order. When ranking, write the labels in the order the request describes.
Output: II, I, IV, III
(II: 8.64, I: 7.76, IV: 7.32, III: 7.05)

(A) Nc1ncccc1-c1nc2ccc(-n3cccn3)nc2n1-c1ccc2c(c1)CC[C@@H]2NC1CN(c2ccccn2)C1
(B) Cc1nnc(-c2ccc3nc(-c4cccnc4N)n(-c4ccc5c(c4)CC[C@@H]5NC4CCN(C(=O)C5CC5)CC4)c3n2)s1
Task: pIC50 comparison. Which is larger, A or B ? Indicate your choice by writing its label.
Output: A
(A: 7.82, B: 6.99)

* * *

Target: AKT1 WT (Homo sapiens, UniProt P31749)
Construct: expressed in transfected cells; host or cells: HEK293
Assay: Live cell AKT1 WT target engagement by NanoBRET competitive probe displacement in HEK293 cells
Assay type: binding
Conditions: NanoBRET live cell target engagement, HEK293 cells, 2 h at 37° C.; read-out: AKT1 WT IC50
Protocol: Determining live cell AKT1 E17K, AKT1 WT, and AKT2 target engagement by NanoBRET competitive probe displacement. […] Briefly, HEK293 cells were transfected with plasmids encoding kinase-NanoLuciferase fusion proteins overnight. […] After incubation for 2 h at 37° C., luciferase substrate and extracellular luciferase inhibitor were added to all wells, and luminescent intensity at 460 nm and 600 nm were measured on a multimode plate-reader. […]
Parameter: IC50 (nM)

(I) Nc1ncccc1-c1nc2ccc(-n3cccn3)nc2n1-c1ccc2c(c1)CC[C@@H]2NC(=O)c1ccnc2c1OCCO2 [Compound 356]
(II) Cn1ncc2cc(C(=O)N[C@H]3CCc4cc(-n5c(-c6cccnc6N)nc6ccc(-n7cccn7)nc65)ccc43)cnc21 [Compound 28]
Task: Which has the smaller recorded IC50, I or II ? Indicate your choice by writing its label.
Output: II
(II: 2.53 nM, I: 52.3 nM)

(I) Nc1ncccc1-c1nc2ccc(-n3cccn3)nc2n1-c1ccc2c(c1)CC[C@@H]2NC(=O)Cc1ccn[nH]1 [Compound 51]
(II) Nc1ncccc1-c1nc2ccc(-n3cccn3)nc2n1-c1ccc2c(c1)CC[C@@H]2N [Example 2]
(III) Cc1cc(C(=O)N[C@H]2CCc3cc(-n4c(-c5cccnc5N)nc5ccc(-n6cccn6)nc54)ccc32)sn1 [Compound 375]
(IV) Cc1coc(-c2ccc3nc(-c4cccnc4N)n(-c4ccc5c(c4)CC[C@@H]5n4ccnn4)c3n2)n1 [Compound 245]
Task: List items by IC50 in falling order. When ranking, write the labels in the order the request describes.
Output: I, II, IV, III

(P) Nc1ncccc1-c1nc2ccc(-n3cccn3)nc2n1-c1ccc2c(c1)CC[C@@H]2NC1CCC1 [Compound 88]
(Q) Nc1ncccc1-c1nc2ccc(-c3ncco3)nc2n1-c1ccc2c(c1)CC[C@@H]2n1ccnn1 [Compound 246]
Task: Which has the smaller recorded IC50, P or Q ? Indicate your choice by writing its label.
Output: Q

(a) Nc1ncccc1-c1nc2ccc(-n3cccn3)nc2n1-c1ccc2c(c1)CC[C@@H]2n1ccc(=O)cc1 [Compound 83]
(b) Nc1ncccc1-c1nc2ccc(-n3cccn3)nc2n1-c1ccc2c(c1)CC[C@@H]2NC(=O)c1ccc(C(F)F)cc1 [Compound 61]
(c) Nc1ncccc1-c1nc2ccc(-n3cccn3)nc2n1-c1ccc2c(c1)CC[C@@H]2NC(=O)c1ccnc2c1CCC2 [Compound 235]
(d) Nc1ncccc1-c1nc2ccc(-n3cccn3)nc2n1-c1ccc2c(c1)CC[C@@H]2NC(=O)c1ccnc2c1CCO2 [Compound 225]
(e) Cc1ccc(S(=O)(=O)N[C@H]2CCc3cc(-n4c(-c5cccnc5N)nc5ccc(-n6cccn6)nc54)ccc32)cn1 [Compound 82]
Task: List items by IC50 in falling order. When ranking, write the labels in the order the request describes.
Output: a, e, c, d, b

* * *

Target: AKT2 (Homo sapiens, UniProt P31751)
Construct: expressed in transfected cells; host or cells: HEK293
Sequence (P31751 whole entry): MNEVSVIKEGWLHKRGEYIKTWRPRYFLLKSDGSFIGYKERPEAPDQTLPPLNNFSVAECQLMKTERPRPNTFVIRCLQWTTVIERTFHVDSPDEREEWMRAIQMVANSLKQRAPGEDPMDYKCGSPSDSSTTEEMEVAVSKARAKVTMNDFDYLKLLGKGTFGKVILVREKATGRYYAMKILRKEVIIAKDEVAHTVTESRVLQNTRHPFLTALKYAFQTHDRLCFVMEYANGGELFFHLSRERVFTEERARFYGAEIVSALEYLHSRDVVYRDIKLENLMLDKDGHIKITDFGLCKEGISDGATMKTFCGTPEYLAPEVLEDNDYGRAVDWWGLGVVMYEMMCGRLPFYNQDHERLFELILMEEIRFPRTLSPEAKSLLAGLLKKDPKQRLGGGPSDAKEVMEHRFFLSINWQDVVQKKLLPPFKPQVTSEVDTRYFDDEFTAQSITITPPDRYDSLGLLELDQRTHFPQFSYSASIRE
Experiment: Live cell AKT2 target engagement by NanoBRET competitive probe displacement in HEK293 cells
Format: binding
Conditions: NanoBRET live cell target engagement, HEK293 cells, 2 h at 37° C.; read-out: AKT2 IC50
Experimental: Determining live cell AKT1 E17K, AKT1 WT, and AKT2 target engagement by NanoBRET competitive probe displacement. […] Briefly, HEK293 cells were transfected with plasmids encoding kinase-NanoLuciferase fusion proteins overnight. […] After incubation for 2 h at 37° C., luciferase substrate and extracellular luciferase inhibitor were added to all wells, and luminescent intensity at 460 nm and 600 nm were measured on a multimode plate-reader. […]
Parameter: IC50 (nM)

# Given smiles, Assay value
records = [
    ("COc1cc(C(=O)N[C@H]2CCc3cc(-n4c(-c5cccnc5N)nc5ccc(-n6nccn6)nc54)ccc32)ccn1", 207),
]

(A) Nc1ncccc1-c1nc2ccc(-n3cccn3)nc2n1-c1ccc2c(c1)CC[C@@H]2NC(=O)c1ccnc2sccc12
(B) Cn1cc(Cc2nncn2[C@H]2CCc3cc(-n4c(-c5cccnc5N)nc5ccc(-n6cccn6)nc54)ccc32)cn1
Task: IC50 comparison. Which is larger, A or B ? Indicate your choice by writing its label.
Output: B

* * *

Target: AKT1 WT (Homo sapiens, UniProt P31749)
Construct: expressed in transfected cells; host or cells: HEK293
Test: Live cell AKT1 WT target engagement by NanoBRET competitive probe displacement in HEK293 cells
Format: binding
Details: NanoBRET competitive probe displacement, live HEK293 cells, 2 h at 37° C.; read-out: AKT1 WT IC50
Description: Determining live cell AKT1 E17K, AKT1 WT, and AKT2 target engagement by NanoBRET competitive probe displacement. […] Briefly, HEK293 cells were transfected with plasmids encoding kinase-NanoLuciferase fusion proteins overnight. […] After incubation for 2 h at 37° C., luciferase substrate and extracellular luciferase inhibitor were added to all wells, and luminescent intensity at 460 nm and 600 nm were measured on a multimode plate-reader. […]
Parameter: IC50 (nM)

# Compound, Assay value
records = [
    ("N#Cc1nccc(N2CCC(N[C@@H]3c4ccc(-n5c(-c6cccnc6N)nc6ccc(-n7cccn7)nc65)cc4CC3F)CC2)n1 (stereo partly shown)", 5.42),
    ("COc1nccc2c1CCC2N[C@H]1CCc2cc(-n3c(-c4cccnc4N)nc4ccc(-n5cccn5)nc43)ccc21 (stereo partly shown) [Compound 509]", 28.7),
    ("Cc1ccc(C(=O)N[C@H]2CCc3cc(-n4c(-c5cccnc5N)nc5ccc(-n6cnc(C(F)F)n6)nc54)ccc32)cn1", 83.5),
]

(a) Nc1ncccc1-c1nc2ccc(-n3cccn3)nc2n1-c1ccc2c(c1)CC[C@@H]2NC1CCN(C(=O)C2CC2)CC1F (stereo partly shown) [Compound 444]
(b) Cn1c(C(=O)N[C@H]2CCc3cc(-n4c(-c5cccnc5N)nc5ccc(-n6nccn6)nc54)ccc32)cnc1C(F)F
(c) Nc1ncccc1-c1nc2ccc(-c3cnccn3)nc2n1-c1ccc2c(c1)CC[C@@H]2NC1CCN(C(=O)C2CC2)CC1
(d) Cc1ccc(C(=O)N[C@H]2CCc3cc(-n4c(-c5cccnc5N)nc5ccc(-n6cnc(C7CC7)n6)nc54)ccc32)cn1
Task: Hi! Can you put these in order of IC50, lowest number first? When ranking, write the labels in the order the request describes.
Output: a, d, b, c
